Would you mind telling me the reported inhibition of each entry?
TARGET: Genome polyprotein (Dengue virus type 2 (strain 16681-PDK53))
EXPERIMENT_SUMMARY: flavivirus cap methylation enzyme inhibition – biochemical, confirmation dose response, primary screen (AID 588689)
CONDITION_SET: Dengue-2 NS5 methyltransferase capping enzyme assay, at 25 µM, stronger effect = higher value
Among all 340,000 compounds or so, about 1,000 (0.29%) were called active. A selection follows. Results with a measured potency or affinity are listed apart.
Answers are plain numbers, in %.

Ask: Value lookup for inhibition; key = CCOC(=O)CC1COc2ccccc2N1C(=O)c1cccc([N+](=O)[O-])c1 (centres undefined)
Reply: -0.68

Ask: Field entry: `Cc1ccc(S(=O)(=O)/N=C(\Nc2cccc(C)c2)Nc2nc(C)cc(C)n2)cc1`
Reply: -1.83

Ask: Field entry: `O=C(Cc1ccc(Br)cc1)N/N=C/c1cccnc1`
Reply: 1.95

Provide inhibition values for the following items, in order.
1. O=c1c2ccccc2nc(/C=C/c2ccc([N+](=O)[O-])cc2)n1CCCO
2. CCCCC(NC(=O)Cc1c(C)c2cc3c(C)c(C)oc3c(C)c2oc1=O)C(=O)O (centres undefined)

Reply:
-2.58
1.31

---

Would you mind telling me the reported inhibition of each entry?
TARGET: Genome polyprotein (Dengue virus type 2 (strain 16681-PDK53))
EXPERIMENT_SUMMARY: flavivirus cap methylation enzyme inhibition – biochemical, confirmation dose response, primary screen (AID 588689)
CONDITION_SET: Dengue-2 NS5 methyltransferase capping enzyme assay, at 25 µM, stronger effect = higher value
Screen size: about 340,000 compounds; about 1,000 (0.29%) were called active. A selection follows. Measured potencies and affinities stand elsewhere.
Numbers only, in %.

Look over these answered cases.
Ask: Please state recorded inhibition (tested on Genome polyprotein (Dengue virus type 2 (strain 16681-PDK53))) of `O=C(c1ccco1)N1CCN(C(=S)Nc2ccccc2Cl)CC1`
Reply: 1.93

Ask: Field entry: O=C(COc1ccc([N+](=O)[O-])cc1)NCC(c1cccs1)N1CCOCC1 (stereo not given)
Reply: 4.32

Ask: Field entry: `CCOC(=O)C1=CN2CCCC[C@@H]2CC1=O`
Reply: -4.81

Ask: Field entry: `CO/N=C(/C)CCS(=O)(=O)c1ccccc1`
Reply: -0.73

Provide inhibition values for the following items, in order.
1. CSc1nccn1CC(=O)Nc1ccc(F)cc1
2. COC(=O)C1SCC2C(=O)N(Cc3ccc(F)cc3)CC(=O)N21 (stereo not given)
3. CCc1ccc(C(=O)C(C)OC(=O)c2nc3nc(C)cc(C)n3n2)cc1 (stereo not given)
4. CCCN(CCC)S(=O)(=O)c1cccc(-c2csc(C)n2)c1

Reply:
1. -6.45
2. -5.39
3. -7.33
4. -5.33

Provide inhibition values for the following items, in order.
1. CCOC(=O)C1CCN(C(=O)C2CCN(S(=O)(=O)c3ccc4c(c3)CC(C)N4C(C)=O)CC2)CC1 (stereo not given)
2. CC(C)N(C(=O)[C@H]1C[C@H](CC(=O)NCCN2CCOCC2)C(=O)N2CCc3c([nH]c4cc(-c5ccco5)ccc34)[C@]12C)C(C)C

Reply:
1: 2.72; 2: -6.51

---

Would you mind telling me the reported inhibition of each entry?
TARGET: Genome polyprotein (Dengue virus type 2 (strain 16681-PDK53)) (UniProt P29991)
EXPERIMENT_SUMMARY: flavivirus cap methylation enzyme inhibition – biochemical, confirmation dose response, primary screen (AID 588689)
CONDITION_SET: Dengue-2 NS5 methyltransferase capping enzyme assay, at 25 µM, stronger effect = higher value
In all, about 340,000 compounds went through this assay and about 1,000 (0.29%) were called active. These entries were drawn from the full list. Measured potencies and affinities stand elsewhere.
Numbers only, in %.

Look over these answered cases.
Ask: Value lookup for inhibition; key = `COc1ccccc1/C=C1\SC(=S)N(N2C(=O)CCCC2=O)C1=O`
Reply: 0

Ask: Field entry: `Cc1cn([C@H]2C[C@H](O)[C@@H](CNC(=O)CNC(=O)CN)O2)c(=O)[nH]c1=O`
Reply: 2.27

Ask: Field entry: `Cc1csc(N(C(=O)c2cccc(S(=O)(=O)N(C)C)c2)c2ccccc2)n1`
Reply: -1.38

Ask: Field entry: `Cc1ccc(N2NC(=O)/C(=C/c3ccc(-c4ccc(Cl)c(C(=O)O)c4)o3)C2=O)cc1`
Reply: 15.4

Ask: Field entry: `CC1(C)CC(=NO)CC(C)(C)N1`
Reply: 0

Provide inhibition values for the following items, in order.
1. O=P(C(=S)Nc1ccccc1Cl)(c1ccccc1)c1ccccc1
2. O=C(O)c1cccc(-c2ccc(/C=C3/SC(=Nc4ccccc4)N(Cc4cccnc4)C3=O)o2)c1
3. CCc1nc2nc(C)c(NS(=O)(=O)c3ccc(C4CCCCC4)cc3)c(=O)n2[nH]1
4. CCOC(=O)c1c(C)nc2c(c1-c1cc(OC)ccc1OC)C(=O)c1ccccc1-2
5. O=C(NCCO)C(=O)NCC(c1cccs1)S(=O)(=O)c1ccc(F)cc1 (configuration not stated)
6. O=C(/C=C/c1cccc([N+](=O)[O-])c1)NCCN1C(=O)S/C(=C\c2ccc(F)cc2)C1=O
7. Cc1nn(CCCC(=O)NCc2ccccc2)c(C)c1[N+](=O)[O-]

Reply:
1: -1.15; 2: 3.26; 3: 7.51; 4: 0; 5: 0; 6: 5.26; 7: -1.91

Provide inhibition values for the following items, in order.
1. COc1ccc(OC)c(N2C(=O)CCCC2=O)c1
2. COc1ccc(OC)c(/C=C2\SC(=S)N(NS(=O)(=O)c3ccccc3)C2=O)c1
3. O=C(O)c1ccccc1-c1ccccc1C(=O)Nc1ccc2oc(=O)c3ccccc3c2c1
4. Cc1cc2c3c([nH]c2cc1S(=O)(=O)NCc1ccc(CN2CCCCCC2)o1)CCCC3=O

Reply:
-1.93
43.4
11.5
-7.25

---

TARGET: Genome polyprotein (Dengue virus type 2 (strain 16681-PDK53))
EXPERIMENT_SUMMARY: flavivirus cap methylation enzyme inhibition – biochemical, confirmation dose response, primary screen (AID 588689)
CONDITION_SET: Dengue-2 NS5 methyltransferase capping enzyme assay, at 25 µM, stronger effect = higher value
Out of some 340,000 compounds screened, about 1,000 (0.29%) were called active. The list is a sample of the results. Results with a measured potency or affinity are listed apart.
REPORTED_PROPERTY: inhibition (%)
Give bare numbers, in %.

Look over these answered cases.
Ask: Value lookup for inhibition; key = `O=C(O)CSc1ncnc2c1sc1nc(-c3ccccc3)c3c(c12)CCC3`
Reply: 22.7

Ask: Field entry: `COc1ccc(N2C(=O)C(Cl)=C(N3CCCC3)C2=O)cc1`
Reply: -10.6

Ask: Field entry: `CCNC1=C(Cl)C(=O)c2ccccc2C1=O`
Reply: 6.43

Ask: Field entry: `COCCNc1nnc(SCC(=O)NC(=O)c2ccc(Cl)cc2)s1`
Reply: 2.89

Ask: Field entry: `O=C(O)c1cccc(NC2=C(n3nnc4ccccc43)C(=O)c3ccccc3C2=O)c1`
Reply: 0.29

Provide inhibition values for the following items, in order.
1. COc1cccc(-c2noc(CCC(=O)NCC3CCCO3)n2)c1 (configuration not stated)
2. COc1ccc(C2C(C(C)=O)=C(O)C(=O)N2c2ccccn2)cc1 (configuration not stated)
3. COc1cccc(CNS(=O)(=O)c2cc3c4c(c2)CCN4C(=O)CC3)c1
4. COc1ccc(CNc2ccc(S(N)(=O)=O)cc2)c(OC)c1OC

Reply:
1.45
0.65
-2.16
-2.41

Provide inhibition values for the following items, in order.
1. Nc1ccc(NC(=O)c2ccccc2)c2c1C(=O)c1ccccc1C2=O
2. CCCOc1ccc(C2C(C(=O)c3cc4ccccc4o3)=C(O)C(=O)N2c2cc(C)on2)cc1 (configuration not stated)

Reply:
3.24
27.6

Provide inhibition values for the following items, in order.
1. CC1=C(C#N)C(c2ccc(O)cc2)C2=C(CCCC2=O)N1 (configuration not stated)
2. O=C(NC(=O)c1cc([N+](=O)[O-])ccc1Cl)C1=C(N2CCCC2)COC1=O
3. Cc1cc(N2C(=O)C(O)=C(C(=O)c3cc4ccccc4o3)C2c2cccc(Br)c2)no1 (configuration not stated)
4. C=CCOc1cccc(C2C(C(=O)c3ccc(C)o3)=C(O)C(=O)N2CCN(C)C)c1 (configuration not stated)
5. O=C(O)CCCCN1C(=O)/C(=C\c2ccc(OCc3ccccc3)c(OCc3ccccc3)c2)SC1=S
6. O=C1C(Cl)=C(NCCCO)C(=O)c2ccccc21
7. CCOc1ccc(N2C(=O)c3ccccc3C2=O)cc1
8. O=C1C(Cl)=C(Nc2ccc(O)cc2)C(=O)c2ccccc21

Reply:
[0, -8.37, 5.32, -3.18, 6.5, -6.93, 1.62, 27.1]

---

TARGET: Genome polyprotein (Dengue virus type 2 (strain 16681-PDK53)) (UniProt P29991)
EXPERIMENT_SUMMARY: flavivirus cap methylation enzyme inhibition – biochemical, confirmation dose response, primary screen (AID 588689)
CONDITION_SET: Dengue-2 NS5 methyltransferase capping enzyme assay, at 25 µM, stronger effect = higher value
Screen size: about 340,000 compounds; about 1,000 (0.29%) were called active. Not all results are given here. Results with a measured potency or affinity are listed apart.
Would you mind telling me the reported inhibition of each entry?
One number for each entry, in %.

Look over these answered cases.
Ask: Value lookup for inhibition; key = `O=C1CSC(=S)N1/N=C/c1ccc2c(c1)OCCO2`
Reply: -7.17

Ask: Field entry: `CCOc1cccc(N2CCN(CCNC(=O)Nc3ccc(C)cc3)CC2)c1C`
Reply: -3.11

Ask: Field entry: `COc1ccc(C)cc1NC(=O)NNC(=O)c1ccoc1C`
Reply: 5.8

Ask: Field entry: `COc1cc(NCc2ccccc2O)c2ncccc2c1`
Reply: -1.29

Ask: Field entry: `Cn1cc(C(=O)Nc2ccc(F)c(F)c2)cn1`
Reply: 0

Provide inhibition values for the following items, in order.
1. COc1cc(C(=O)NCCC(c2ccccc2)c2ccccc2)cc(OC)c1OC
2. CC(C(=O)O)N1C(=O)C2C3c4ccccc4C(c4ccccc43)[C@@H]2C1=O (stereo partly specified)
3. O=C(O)c1ccccc1Nc1ccccc1C(=O)O
4. O=C(c1ccc(NC(=S)Nc2ccc(Cl)c(Cl)c2)cc1)N1CCCC1
5. CC1CCN(C2=NC(=O)/C(=C/c3cn(-c4ccccc4)nc3-c3cccc(S(=O)(=O)N(C)C)c3)S2)CC1
6. CN(C)S(=O)(=O)c1cccc(-c2nn(-c3ccccc3)cc2/C=C2\SC(=S)NC2=O)c1
7. C[C@@H]1CC2[C@@H]3CC[C@H]4CC(=O)CC[C@]4(C)C3=CC[C@]2(C)[C@@]1(O)C(=O)CO (stereo partly specified)

Reply:
-9.51
-2.61
4.09
-10.3
-0.56
-16
-1.96
